TESTED TARGET: human NKp30 (human) (UniProt O14931)
Sequence (O14931 19-135 limits assumed): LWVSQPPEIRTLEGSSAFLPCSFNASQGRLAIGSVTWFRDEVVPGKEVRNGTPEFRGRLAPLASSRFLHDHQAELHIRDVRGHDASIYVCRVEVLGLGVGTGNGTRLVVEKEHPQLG
TEST PROTOCOL: BLI, immunoligand on anti-hFc tip
Rule: Criterion met for kon not less than 700000 M⁻¹ s⁻¹, Criterion not met for anything less.

1) ΔB7-H6_S3#8-SEED-PGLALA (bispecific antibody, part only; not given: SEED Fc chains and hu225 EGFR Fab, part only) chain, part: DLKVEMMAGGTQITPLNDNVTIFCNIFYSQPLNITHMGITWFWKSLTFDKEVKVFEFWGDHQEAFRPGAIVSPWRLKSGDASLRLPGIQLEEAGEYRCEVIVTPLKAQGTVQLEVVASPAS ... Criterion not met
2) ΔB7-H6_S3#25-SEED-PGLALA (bispecific antibody, part only; not given: SEED Fc chains and hu225 Fab, part only) chain, part: DLKVEMMAGGTQITPLNDNVTIFCNIFYSQPLNITWMGITWFWKSLTFDKEVKVFEFYGDHQEAFRPGAIVSPWRLKSGDASLRLPGIQLEEAGEYRCEVVVTPYKAQGTVQLEVVASPAS ... Criterion met
3) ΔB7-H6_S3#22-SEED-PGLALA (bispecific antibody, part only; not given: SEED Fc chains and hu225 Fab, part only) chain, part: DLKVEMMAGGTQITPLNDNVTIFCNIFYSQPLNITEMGITWFWKSLTFDKEVKVFEFWGDHQEAFRPGAIVSPWRLKSGDASLRLPGIQLEEAGEYRCEVVVTPYKAQGTVQLEVVASPAS ... Criterion not met
4) ΔB7-H6_S2#14-SEED-PGLALA (bispecific antibody, part only; not given: SEED Fc chains and hu225 Fab, part only) chain, part: DLKVEMMAGGTQITPLNDNVTIFCNIFYSQPLNITTMGITWFWKSLTFDKEVKVFEFFGDHQEAFRPGAIVSPWRLKSGDASLRLPGIQLEEAGEYRCEVVVTPYKAQGTVQLEVVASPAS ... Criterion not met
5) ΔB7-H6_S3#20-SEED-PGLALA (bispecific antibody, part only; not given: SEED Fc chains and hu225 Fab, part only) chain, part: DLKVEMMAGGTQITPLNDNVTIFCNIFYSQPLNITHMGITWFWKSLTFDKEVKVFEFWGDHQEAFRPGAIVSPWRLKSGDASLRLPGIQLEEAGEYRCEVFVTPLKAQGTVQLEVVASPAS ... Criterion met

All figures here come from patent US20230287082A1.
